Consider the following molecules; for each one, report its MIC.
Test system: Streptococcus pneumoniae
Assay: Antibacterial activity against Streptococcus pneumoniae ATCC49619 assessed as inhibition of bacterial growth incubated for 24 hrs by CLSI protocol based broth microdilution method
Type: functional

{"Molecule": "CN[C@H](CC(C)C)C(=O)N[C@H]1C(=O)N[C@@H](CC(N)=O)C(=O)N[C@H]2C(=O)N[C@H]3C(=O)N[C@H](C(=O)N[C@H](C(=O)O)c4cc(O)cc(O)c4-c4cc3ccc4O)[C@H](O)c3ccc(c(Cl)c3)Oc3cc2cc(c3O[C@@H]2O[C@H](CO)[C@@H](O)[C@H](O)[C@H]2O[C@H]2C[C@](C)(N)[C@H](O)[C@H](C)O2)Oc2ccc(cc2Cl)[C@H]1O [VANCOMYCIN]", "Test System": "Streptococcus pneumoniae", "MIC": "0.5 µg/mL"}
{"Molecule": "CN[C@H](CC(C)C)C(=O)N[C@H]1C(=O)N[C@@H](CC(N)=O)C(=O)N[C@H]2C(=O)N[C@H]3C(=O)N[C@H](C(=O)N[C@H](C(=O)NCCCc4cn(-c5ccc(OC(F)F)cc5)nn4)c4cc(O)cc(O)c4-c4cc3ccc4O)[C@H](O)c3ccc(c(Cl)c3)Oc3cc2cc(c3O[C@@H]2O[C@H](CO)[C@@H](O)[C@H](O)[C@H]2O[C@H]2C[C@](C)(N)[C@H](O)[C@H](C)O2)Oc2ccc(cc2Cl)[C@H]1O", "Test System": "Streptococcus pneumoniae", "MIC": "≤ 0.015 µg/mL"}
{"Molecule": "CN[C@H](CC(C)C)C(=O)N[C@H]1C(=O)N[C@@H](CC(N)=O)C(=O)N[C@H]2C(=O)N[C@H]3C(=O)N[C@H](C(=O)N[C@H](C(=O)O)c4cc(O)cc(O)c4-c4cc3ccc4O)[C@H](O)c3ccc(c(Cl)c3)Oc3cc2cc(c3O[C@@H]2O[C@H](CO)[C@@H](O)[C@H](O)[C@H]2O[C@H]2C[C@](C)(NCc3ccc(C#Cc4ccccc4)cc3)[C@H](O)[C@H](C)O2)Oc2ccc(cc2Cl)[C@H]1O", "Test System": "Streptococcus pneumoniae", "MIC": "≤ 0.015 µg/mL"}
{"Molecule": "CN[C@H](CC(C)C)C(=O)N[C@H]1C(=O)N[C@@H](CC(N)=O)C(=O)N[C@H]2C(=O)N[C@H]3C(=O)N[C@H](C(=O)N[C@H](C(=O)O)c4cc(O)cc(O)c4-c4cc3ccc4O)[C@H](O)c3ccc(c(Cl)c3)Oc3cc2cc(c3O[C@@H]2O[C@H](CO)[C@@H](O)[C@H](O)[C@H]2O[C@H]2C[C@](C)(NCc3ccc(Oc4cc(Cl)cc(Cl)c4)cc3)[C@H](O)[C@H](C)O2)Oc2ccc(cc2Cl)[C@H]1O", "Test System": "Streptococcus pneumoniae", "MIC": "≤ 0.015 µg/mL"}
{"Molecule": "CN[C@H](CC(C)C)C(=O)N[C@H]1C(=O)N[C@@H](CC(N)=O)C(=O)N[C@H]2C(=O)N[C@H]3C(=O)N[C@H](C(=O)N[C@H](C(=O)NCCCc4cn(Cc5ccc(Cl)c(Cl)c5)nn4)c4cc(O)cc(O)c4-c4cc3ccc4O)[C@H](O)c3ccc(c(Cl)c3)Oc3cc2cc(c3O[C@@H]2O[C@H](CO)[C@@H](O)[C@H](O)[C@H]2O[C@H]2C[C@](C)(N)[C@H](O)[C@H](C)O2)Oc2ccc(cc2Cl)[C@H]1O", "Test System": "Streptococcus pneumoniae", "MIC": "≤ 0.015 µg/mL"}

Hey, can you go through the list below and give me MIC for every item?
1. CN[C@H](CC(C)C)C(=O)N[C@H]1C(=O)N[C@@H](CC(N)=O)C(=O)N[C@H]2C(=O)N[C@H]3C(=O)N[C@H](C(=O)N[C@H](C(=O)O)c4cc(O)cc(O)c4-c4cc3ccc4O)[C@H](O)c3ccc(c(Cl)c3)Oc3cc2cc(c3O[C@@H]2O[C@H](CO)[C@@H](O)[C@H](O)[C@H]2O[C@H]2C[C@](C)(NCCCc3cn(Cc4ccc(Cl)c(Cl)c4)nn3)[C@H](O)[C@H](C)O2)Oc2ccc(cc2Cl)[C@H]1O
2. CN[C@H](CC(C)C)C(=O)N[C@H]1C(=O)N[C@@H](CC(N)=O)C(=O)N[C@H]2C(=O)N[C@H]3C(=O)N[C@H](C(=O)N[C@H](C(=O)O)c4cc(O)cc(O)c4-c4cc3ccc4O)[C@H](O)c3ccc(c(Cl)c3)Oc3cc2cc(c3O[C@@H]2O[C@H](CO)[C@@H](O)[C@H](O)[C@H]2O[C@H]2C[C@](C)(NCc3ccc(Oc4ccccc4)cc3)[C@H](O)[C@H](C)O2)Oc2ccc(cc2Cl)[C@H]1O
3. CN[C@H](CC(C)C)C(=O)N[C@H]1C(=O)N[C@@H](CC(N)=O)C(=O)N[C@H]2C(=O)N[C@H]3C(=O)N[C@H](C(=O)N[C@H](C(=O)O)c4cc(O)cc(O)c4-c4cc3ccc4O)[C@H](O)c3ccc(c(Cl)c3)Oc3cc2cc(c3O[C@@H]2O[C@H](CO)[C@@H](O)[C@H](O)[C@H]2O[C@H]2C[C@](C)(NCCCc3cn(C4CN(C(c5ccccc5)c5ccccc5)C4)nn3)[C@H](O)[C@H](C)O2)Oc2ccc(cc2Cl)[C@H]1O

1. ≤ 0.03 µg/mL
2. ≤ 0.03 µg/mL
3. ≤ 0.03 µg/mL
